species on record: Rattus norvegicus; assay: Toxicity in rat assessed as increase in hepatic triglyceride level measured up to 24 hrs; type: organism-based; conditions: in vivo

Chemical Structure: Cc1cnc(CCCO)c(C)c1.Cl
Activity: Toxic
//
Chemical Structure: Cc1cccnc1CCC(=O)O
Activity: Toxic
//
Chemical Structure: CC(=O)OCCCc1ncccc1C
Activity: Toxic
//
Chemical Structure: COCCCc1ncccc1C
Activity: Toxic

meta.source: ChEMBL document CHEMBL3227927
